- targetSystem: EGFR wildtype (Homo sapiens, UniProt P00533)
- Sequence (P00533 25-1210): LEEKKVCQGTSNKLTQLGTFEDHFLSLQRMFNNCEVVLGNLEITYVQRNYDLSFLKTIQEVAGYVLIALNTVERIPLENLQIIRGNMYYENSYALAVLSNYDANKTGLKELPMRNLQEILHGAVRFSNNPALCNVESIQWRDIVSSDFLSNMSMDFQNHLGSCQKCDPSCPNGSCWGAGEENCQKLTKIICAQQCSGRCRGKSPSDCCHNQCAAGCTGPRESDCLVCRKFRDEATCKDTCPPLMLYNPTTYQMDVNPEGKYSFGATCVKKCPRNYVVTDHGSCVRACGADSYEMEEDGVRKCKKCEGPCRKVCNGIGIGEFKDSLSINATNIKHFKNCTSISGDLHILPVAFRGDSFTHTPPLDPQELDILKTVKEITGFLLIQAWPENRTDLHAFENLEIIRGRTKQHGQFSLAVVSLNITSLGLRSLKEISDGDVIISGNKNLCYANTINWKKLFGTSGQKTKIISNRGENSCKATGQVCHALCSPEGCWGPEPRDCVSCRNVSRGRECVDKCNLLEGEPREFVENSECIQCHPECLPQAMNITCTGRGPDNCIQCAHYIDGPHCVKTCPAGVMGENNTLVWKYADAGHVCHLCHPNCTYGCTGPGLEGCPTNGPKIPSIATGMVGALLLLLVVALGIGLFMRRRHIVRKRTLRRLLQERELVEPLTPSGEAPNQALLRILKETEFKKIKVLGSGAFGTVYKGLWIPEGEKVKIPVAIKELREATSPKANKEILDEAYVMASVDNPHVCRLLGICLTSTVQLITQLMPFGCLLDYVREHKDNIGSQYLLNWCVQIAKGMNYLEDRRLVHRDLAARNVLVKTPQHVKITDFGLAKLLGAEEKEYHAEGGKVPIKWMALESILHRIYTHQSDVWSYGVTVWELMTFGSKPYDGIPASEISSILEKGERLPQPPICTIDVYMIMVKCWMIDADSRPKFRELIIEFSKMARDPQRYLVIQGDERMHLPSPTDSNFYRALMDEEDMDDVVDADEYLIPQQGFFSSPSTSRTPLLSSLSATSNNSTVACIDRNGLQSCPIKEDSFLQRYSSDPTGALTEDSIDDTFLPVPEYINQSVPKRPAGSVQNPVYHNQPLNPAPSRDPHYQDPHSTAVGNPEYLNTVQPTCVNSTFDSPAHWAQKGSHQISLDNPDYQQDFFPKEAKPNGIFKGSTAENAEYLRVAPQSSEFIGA
- assayDetails: Biochemical EGFR kinase assay (Lance Ultra TR-FRET), wildtype
- conditionInfo: Km ATP; read-out: IC50 WT (nM) Km ATP
observable: IC50 (nM)

# count of solved cases: 3
[
  {
    "compound": "CC(C)(O)c1cnc(-c2cnc(Nc3ccnc(-c4cnn(S(=O)(=O)C5CC5)c4)n3)cc2N[C@H]2CC[C@@H](CO)CC2)cn1",
    "observedValue": 1
  },
  {
    "compound": "COC1CN(c2ccc(-c3cnc(Nc4ccnc(-c5cnn(S(=O)(=O)C6CC6)c5)n4)cc3N[C@H]3CC[C@@H](CO)CC3)nc2)C1",
    "observedValue": 2.5
  },
  {
    "compound": "CN(C)c1ccnc(-c2cnc(Nc3ccnc(-c4cnn(S(=O)(=O)C5CC5)c4)n3)cc2N[C@H]2CC[C@@](C)(O)CC2)n1",
    "observedValue": 43.6
  }
]

I. C[C@]1(O)CC[C@@H](Nc2cc(Nc3ccnc(-c4cnn(S(=O)(=O)C5CC5)c4)n3)ncc2-c2cc(C(F)F)ccn2)CC1
II. CN(C)CCOc1cnc(-c2cnc(Nc3ccnc(-c4cnn(S(=O)(=O)C5CC5)c4)n3)cc2NC2CCC(C)(O)CC2)cn1 (stereo not shown)
III. CN1CCC(Oc2ccc(-c3cnc(Nc4ccnc(-c5cnn(CC(F)F)c5)n4)cc3NC3CCCC(F)C3)nc2)CC1 (stereo not shown)
List these items ordered by IC50, big to small. # answer = labels listed in requested order
III, I, II
(III: 12.4 nM, I: 8.1 nM, II: 1.8 nM)

a. C[C@]1(O)CC[C@@H](Nc2cc(Nc3ccnc(-c4cnn(S(=O)(=O)C5CC5)c4)n3)ncc2-c2cc(OC(F)F)ccn2)CC1
b. O=S(=O)(C1CC1)n1cc(-c2nccc(Nc3cc(N[C@H]4CC[C@H](CCO)CC4)c(-c4ccc(C(F)F)cn4)cn3)n2)cn1
c. O=S(=O)(C1CC1)n1cc(-c2nccc(Nc3cc(N[C@H]4CC[C@@H](F)CC4)c(-c4ccc(CN5CCOCC5)cn4)cn3)n2)cn1
Please list these compounds in decreasing order of IC50. Ranked list of labels, please, in the requested order.
b, c, a
(b: 222 nM, c: 45.7 nM, a: 17.4 nM)
